Origin of measurements: patent US20240116946A1

Biological target: recombinant SARS-CoV-2 Main protease (Mpro) (Severe acute respiratory syndrome coronavirus 2 (2019-nCoV) (SARS-CoV-2))
Assay: Cov Mpro Biochemical IC50 Assay
Conditions: recombinant SARS-CoV-2 Mpro, fluorogenic peptide substrate; read-out: MPro IC50
// class assignment uses IC50 with these ranges: I = under 20 nM, II = from 20 nM up to 50 nM, III = 50 nM and over

Example entries begin here.
Molecule	Assigned class
CC(C)(O)CNc1ccc2cncc(-n3c(=O)[nH]c4cc(-c5ccccc5Cl)sc4c3=O)c2c1 [Example 389]	II
O=c1[nH]c2cc(-c3ccccc3Cl)cnc2c(=O)n1-c1cncc2ccccc12 [Example 30]	I
O=c1[nH]c2cc(-c3cccc(Cl)c3)ccc2c(=O)n1-c1cncc2ccccc12 [Example 56]	III
CC(=O)NC1CCN(c2ccc3cncc(-n4c(=O)[nH]c5cc(-c6ccccc6Cl)sc5c4=O)c3c2)CC1 [Example 388]	I
Cc1ccccc1-c1cc2[nH]c(=O)n(-c3cncc4ccccc34)c(=O)c2s1 [Example 7]	II
CCc1ccncc1-n1c(=O)[nH]c2cc(-c3ccccc3Cl)ccc2c1=O [Example 124]	III

[in] Category of O=c1[nH]c2cc(-c3ccc(F)cc3Cl)sc2c(=O)n1-c1cncc2ccccc12 [Example 13] :
[out] I

[in] Dear colleague, I would appreciate it if you could identify the bin for O=c1[nH]c2cc(-c3ccccc3Cl)sc2c(=O)n1-c1cncc2ccc(N3CCN(C4COC4)CC3)cc12 [Example 392] and reply at your convenience.
[out] I

[in] Into which category would you place Cc1nn(C)cc1-c1cccc(Cl)c1-c1ccc2c(=O)n(-c3cncc4ccccc34)c(=O)[nH]c2c1 [Example 148] ?
[out] I
